- measured.target: Ephrin type-A receptor 5 (Homo sapiens) (UniProt P54756)
- Sequence (P54756 whole entry): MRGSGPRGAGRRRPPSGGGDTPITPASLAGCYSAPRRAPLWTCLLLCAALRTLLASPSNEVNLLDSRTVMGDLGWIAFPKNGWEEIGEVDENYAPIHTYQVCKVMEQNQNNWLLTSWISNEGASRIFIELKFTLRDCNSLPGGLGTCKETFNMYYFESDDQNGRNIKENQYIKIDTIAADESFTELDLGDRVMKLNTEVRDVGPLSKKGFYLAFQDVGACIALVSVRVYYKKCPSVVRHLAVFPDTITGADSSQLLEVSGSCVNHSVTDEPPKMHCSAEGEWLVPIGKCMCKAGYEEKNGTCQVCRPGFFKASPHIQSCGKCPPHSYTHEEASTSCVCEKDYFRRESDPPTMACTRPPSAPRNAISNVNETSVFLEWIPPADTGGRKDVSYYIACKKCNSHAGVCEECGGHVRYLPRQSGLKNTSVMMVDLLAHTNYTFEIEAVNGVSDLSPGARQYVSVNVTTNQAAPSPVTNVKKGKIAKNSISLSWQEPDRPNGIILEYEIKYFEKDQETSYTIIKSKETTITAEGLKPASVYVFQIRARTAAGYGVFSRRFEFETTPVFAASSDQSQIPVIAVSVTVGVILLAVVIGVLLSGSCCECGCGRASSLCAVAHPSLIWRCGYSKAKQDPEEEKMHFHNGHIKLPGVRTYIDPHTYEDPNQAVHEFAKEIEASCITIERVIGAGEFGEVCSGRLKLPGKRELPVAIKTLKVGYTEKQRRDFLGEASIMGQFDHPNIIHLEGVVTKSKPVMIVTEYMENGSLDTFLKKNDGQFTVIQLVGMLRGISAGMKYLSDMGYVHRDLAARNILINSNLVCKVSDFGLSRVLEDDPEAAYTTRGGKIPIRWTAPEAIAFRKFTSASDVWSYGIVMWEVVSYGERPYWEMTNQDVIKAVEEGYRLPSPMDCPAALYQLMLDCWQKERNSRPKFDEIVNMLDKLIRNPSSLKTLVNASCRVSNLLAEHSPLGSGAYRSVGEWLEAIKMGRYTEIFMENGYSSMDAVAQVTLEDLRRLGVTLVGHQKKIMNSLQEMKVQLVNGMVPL
- test.context: at 1 µM
measured.parameter: residual activity (%)
# unit: % | format: bare number

Guide cases for residual activity, answers given:
Hi! What's the reported residual activity for O=C1Nc2ccc3ncsc3c2/C1=C/c1c[nH]cn1 on Ephrin type-A receptor 5 (Homo sapiens) (UniProt P54756)?
89

Please provide the recorded residual activity for CC(C)(C)c1cc(C=C(C#N)C#N)cc(Br)c1O , tested on Ephrin type-A receptor 5 (Homo sapiens) (UniProt P54756).
107

Provide value of residual activity for this record tested with Ephrin type-A receptor 5 (Homo sapiens) (UniProt P54756): O=c1[nH]c2ccccc2n1C1CCN(Cc2ccc(-c3nc4cc5[nH]cnc5cc4nc3-c3ccccc3)cc2)CC1
114

Observed residual activity on Ephrin type-A receptor 5 (Homo sapiens) (UniProt P54756) for COC(=O)[C@@]1(O)C[C@H]2O[C@]1(C)n1c3ccccc3c3c4c(c5c6ccccc6n2c5c31)C(=O)NC4 , please.
66

Notebook: pull reported residual activity for Ephrin type-A receptor 5 (Homo sapiens) (UniProt P54756), entry O=C1NC(=O)c2c1c1c3ccccc3n3c1c1c2c2ccccc2n1C1CCC3O1
94

Lab request: please report residual activity under test system Ephrin type-A receptor 5 (Homo sapiens) (UniProt P54756) for COc1cc2ncnc(Nc3ccc(OCc4ccccc4)cc3)c2cc1OC
116

***
Field: residual activity (Ephrin type-A receptor 5 (Homo sapiens) (UniProt P54756)). Entry: O=C1c2ccccc2-c2nc3nnnn3nc21
115

Recorded residual activity for CCc1nc(-c2ccc(OC)cc2)[nH]c1-c1ccncc1 with Ephrin type-A receptor 5 (Homo sapiens) (UniProt P54756), please?
116

For the record CCn1cnc2c(Nc3cccc(Cl)c3)nc(N[C@@H]3CCCC[C@@H]3N)nc21 , what value of residual activity is listed for Ephrin type-A receptor 5 (Homo sapiens) (UniProt P54756)?
70

====

Listing of entries alongside the reported residual activity.
- measured.target: Homeodomain-interacting protein kinase 3 (Homo sapiens)
- test.context: at 10 µM
Unit % implied. Number only.

Consider the following illustrative entries.
Look at this compound and give its reported residual activity. CN[C@@H]1C[C@H]2O[C@@](C)([C@@H]1OC)n1c3ccccc3c3c4c(c5c6ccccc6n2c5c31)C(=O)NC4
27

So what's the measured residual activity for this one? O=C1Nc2ccc3ncsc3c2/C1=C/c1c[nH]cn1
4

# input compound: O=C1NC(=O)c2c1c1c3ccccc3n3c1c1c2c2ccccc2n1C1CCC3O1 ; wanted: its residual activity
-2

Requested field: residual activity. Item: COc1cc(OC)c(/C=C2\C(=O)Nc3ccccc32)c(OC)c1
98

Others:
May I ask what residual activity has been recorded for COc1ccc2c(c1)/C(=C/c1cnc[nH]1)C(=O)N2 ?
49

For the compound shown here, CC(C)[C@H](CO)Nc1nc(Nc2cccc(Cl)c2)c2ncn(C(C)C)c2n1 , give the reported residual activity.
77

Would you mind telling me what residual activity value was observed for O=[N+]([O-])/C=C/c1ccc2c(c1)OCO2 ?
99

Looking for the measured residual activity of O=c1[nH]c2ccccc2n1C1CCN(Cc2ccc(-c3nc4cc5[nH]cnc5cc4nc3-c3ccccc3)cc2)CC1 , can you help?
91

Please look up its residual activity: COC(=O)[C@@]1(O)C[C@H]2O[C@]1(C)n1c3ccccc3c3c4c(c5c6ccccc6n2c5c31)C(=O)NC4
-4

====

- measured.target: Tyrosine-protein kinase TXK (Homo sapiens)
- test.context: at 1 µM
Label scheme for residual activity: lower than 80% is rule not met, 80% and above is rule met.

See these solved cases before continuing.
Hello, I need to know if O=C1c2ccccc2-c2nc3nnnn3nc21 has measured residual activity not below 80%. Thanks!
rule met

Threshold query (residual activity >= 80%) on COc1ccc2c(c[n+](C)c3c4cc5c(cc4ccc23)OCO5)c1OC
rule met

Given O=C1NC(=O)c2c1c1c3ccccc3n3c1c1c2c2ccccc2n1C1CCC3O1 , state whether its residual activity is at least 80%.
rule not met

More entries:
Dear colleague, could you confirm whether COc1cc2ncnc(Nc3ccc(OCc4ccccc4)cc3)c2cc1OC has residual activity at or above 80%?
rule met

Reported residual activity reaches at least 80% for CCn1cnc2c(Nc3cccc(Cl)c3)nc(N[C@@H]3CCCC[C@@H]3N)nc21 ?
rule not met

Would you say C[S+]([O-])c1ccc(-c2nc(-c3ccc(F)cc3)c(-c3ccncc3)[nH]2)cc1 (centres undefined) shows residual activity at minimum 80%?
rule not met

Hi, just wondering whether O=[N+]([O-])/C=C/c1ccc2c(c1)OCO2 shows residual activity of 80% or higher.
rule not met

Check the entry CCc1nc(-c2ccc(OC)cc2)[nH]c1-c1ccncc1 : does residual activity equal or exceed 80%?
rule met

====

- measured.target: Ephrin type-B receptor 4 (Homo sapiens) (UniProt P54760)
- Sequence (whole entry): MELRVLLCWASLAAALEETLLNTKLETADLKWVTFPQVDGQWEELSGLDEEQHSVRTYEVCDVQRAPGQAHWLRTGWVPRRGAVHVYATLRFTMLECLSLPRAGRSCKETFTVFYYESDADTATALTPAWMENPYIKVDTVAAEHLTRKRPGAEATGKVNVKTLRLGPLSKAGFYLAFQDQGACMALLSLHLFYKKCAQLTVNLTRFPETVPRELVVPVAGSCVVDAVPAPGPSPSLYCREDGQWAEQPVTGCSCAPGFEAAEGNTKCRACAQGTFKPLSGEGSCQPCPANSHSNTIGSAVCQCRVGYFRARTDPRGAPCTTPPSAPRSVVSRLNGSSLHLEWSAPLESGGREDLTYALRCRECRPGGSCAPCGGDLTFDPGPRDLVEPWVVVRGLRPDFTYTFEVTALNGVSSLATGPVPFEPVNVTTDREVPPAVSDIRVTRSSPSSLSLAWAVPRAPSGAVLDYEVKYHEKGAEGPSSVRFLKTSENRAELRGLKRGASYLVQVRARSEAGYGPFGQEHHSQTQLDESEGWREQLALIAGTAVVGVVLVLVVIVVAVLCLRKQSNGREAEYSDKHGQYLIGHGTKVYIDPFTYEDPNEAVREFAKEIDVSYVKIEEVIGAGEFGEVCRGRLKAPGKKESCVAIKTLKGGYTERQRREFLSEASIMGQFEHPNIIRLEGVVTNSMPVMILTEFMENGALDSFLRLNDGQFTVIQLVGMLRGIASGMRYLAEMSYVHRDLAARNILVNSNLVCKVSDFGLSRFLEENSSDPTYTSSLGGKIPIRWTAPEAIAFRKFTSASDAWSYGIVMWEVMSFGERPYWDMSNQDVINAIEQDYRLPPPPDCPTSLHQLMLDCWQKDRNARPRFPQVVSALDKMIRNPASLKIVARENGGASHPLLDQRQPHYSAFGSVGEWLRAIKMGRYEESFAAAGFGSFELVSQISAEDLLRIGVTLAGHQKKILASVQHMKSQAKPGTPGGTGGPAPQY
- test.context: at 1 µM
- Description: Millipore: Percentage of residual kinase activity of EPHB4 at 1uM relative to control. Control inhibitor: PP2 at 30.0uM. Buffer: 8 mM MOPS pH 7.0, 0.2 mM EDTA, 10 mM MnCl2
measured.parameter: residual activity (%)
State just the number; it will be interpreted in %.

// returns reported residual activity for input CC(C)(C)c1cc(C=C(C#N)C#N)cc(Br)c1O
102

Further cases:
What measured residual activity goes with COc1cc2ncnc(Nc3ccc(OCc4ccccc4)cc3)c2cc1OC ?
117

Given the compound CCn1cnc2c(Nc3cccc(Cl)c3)nc(N[C@@H]3CCCC[C@@H]3N)nc21 , what is its reported residual activity?
51

Return reported residual activity; argument: COC(=O)[C@@]1(O)C[C@H]2O[C@]1(C)n1c3ccccc3c3c4c(c5c6ccccc6n2c5c31)C(=O)NC4
71

Quick one: residual activity for O=[N+]([O-])/C=C/c1ccc2c(c1)OCO2 ?
114

Requested read-out: residual activity. Entry: COc1ccc2c(c[n+](C)c3c4cc5c(cc4ccc23)OCO5)c1OC
94

====

- measured.target: Serine/threonine-protein kinase WNK2 (Homo sapiens)
- test.context: at 10 µM
- Description: Millipore: Percentage of residual kinase activity of WNK2 at 10uM relative to control. Control inhibitor: Phosphoric acid* at 0.3uM. Buffer: 8 mM MOPS pH 7.0, 0.2 mM EDTA
Give 1 (yes) when the value for residual activity is at least 60%. Give 0 (no) when it is less.

Example entries and their recorded answers appear below.
Has O=c1[nH]c2ccccc2n1C1CCN(Cc2ccc(-c3nc4cc5[nH]cnc5cc4nc3-c3ccccc3)cc2)CC1 a recorded residual activity greater than or equal to 60%?
1 (yes)

Does residual activity meet or surpass 60% for O=C1Nc2ccc3ncsc3c2/C1=C/c1c[nH]cn1 ?
0 (no)

# check: residual activity of CC(C)[C@H](CO)Nc1nc(Nc2cccc(Cl)c2)c2ncn(C(C)C)c2n1 is greater than or equal to 60%
0 (no)

Is reported residual activity greater than or equal to 60% here: O=[N+]([O-])/C=C/c1ccc2c(c1)OCO2
1 (yes)

Reported residual activity reaches at least 60% for C[S+]([O-])c1ccc(-c2nc(-c3ccc(F)cc3)c(-c3ccncc3)[nH]2)cc1 (stereo unspecified) ?
1 (yes)

Next:
hey, is residual activity for this one >= 60%? COC(=O)[C@@]1(O)C[C@H]2O[C@]1(C)n1c3ccccc3c3c4c(c5c6ccccc6n2c5c31)C(=O)NC4
0 (no)
